The values you see were collected from paper PMC4119751.

target-or-test-system: T1, 14-mer V3 peptide KRIHIGPGRAFYTT (MN sequence) (HIV-1 strain MN, V3 crown (peptide))
T1 chain: KRIHIGPGRAFYTT
test-method-notes: ITC
Please note: 1 applies when other is 3 kcal/mol or greater, and 0 applies otherwise.

[
  {
    "binder": "Fv 447–52D Trp^L91Ala (other, human) VH: EVQLVESGGGLVKPGGSLRLTCVASGFTFSDVWLNWVRQAPGKGLEWVGRIKSRTDGGTTDYAASVKGRFTISRDDSKNTLYLQMNSLKTEDTAVYSCTTDGFIMIRGVSEDYYYYYMDVWGKGTTVTVSS VL: QSVLTQPPSVSAAPGQKVTISCSGSSSNIGNNYVLWYQQFPGTAPKLLIYGNNKRPSGIPDRFSGSKSGTSATLGITGLQTGDEADYFCATADSGLSADWVFGGGTKLTVL",
    "group-label": 1
  },
  {
    "binder": "Fv 447–52D Trp^H33Ala (other, human) VH: EVQLVESGGGLVKPGGSLRLTCVASGFTFSDVALNWVRQAPGKGLEWVGRIKSRTDGGTTDYAASVKGRFTISRDDSKNTLYLQMNSLKTEDTAVYSCTTDGFIMIRGVSEDYYYYYMDVWGKGTTVTVSS VL: QSVLTQPPSVSAAPGQKVTISCSGSSSNIGNNYVLWYQQFPGTAPKLLIYGNNKRPSGIPDRFSGSKSGTSATLGITGLQTGDEADYFCATWDSGLSADWVFGGGTKLTVL",
    "group-label": 1
  },
  {
    "binder": "Fv 447–52D Tyr^H100JThr (other, human) VH: EVQLVESGGGLVKPGGSLRLTCVASGFTFSDVWLNWVRQAPGKGLEWVGRIKSRTDGGTTDYAASVKGRFTISRDDSKNTLYLQMNSLKTEDTAVYSCTTDGFIMIRGVSEDYYYTYMDVWGKGTTVTVSS VL: QSVLTQPPSVSAAPGQKVTISCSGSSSNIGNNYVLWYQQFPGTAPKLLIYGNNKRPSGIPDRFSGSKSGTSATLGITGLQTGDEADYFCATWDSGLSADWVFGGGTKLTVL",
    "group-label": 1
  },
  {
    "binder": "Fv 447–52D Asp^H95Asn (other, human) VH: EVQLVESGGGLVKPGGSLRLTCVASGFTFSDVWLNWVRQAPGKGLEWVGRIKSRTDGGTTDYAASVKGRFTISRDDSKNTLYLQMNSLKTEDTAVYSCTTNGFIMIRGVSEDYYYYYMDVWGKGTTVTVSS VL: QSVLTQPPSVSAAPGQKVTISCSGSSSNIGNNYVLWYQQFPGTAPKLLIYGNNKRPSGIPDRFSGSKSGTSATLGITGLQTGDEADYFCATWDSGLSADWVFGGGTKLTVL",
    "group-label": 1
  },
  {
    "binder": "Fv 447–52D Trp^L96Ala (other, human) VH: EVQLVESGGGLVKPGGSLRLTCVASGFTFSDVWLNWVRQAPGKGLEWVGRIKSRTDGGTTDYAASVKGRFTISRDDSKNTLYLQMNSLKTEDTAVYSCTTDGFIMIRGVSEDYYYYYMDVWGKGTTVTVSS VL: QSVLTQPPSVSAAPGQKVTISCSGSSSNIGNNYVLWYQQFPGTAPKLLIYGNNKRPSGIPDRFSGSKSGTSATLGITGLQTGDEADYFCATWDSGLSADAVFGGGTKLTVL",
    "group-label": 0
  }
]
